- Target: natural Fel d1 (cat (Felis domesticus)) (UniProt P30438)
- Assay Procedure: SPR, mAb captured, nFel d1 injected, 25 C
Property: kon; scope: individual binders
Please reply with the bare figure in M⁻¹ s⁻¹ and do not write the unit itself.

Some binders with recorded kon:
Binder	Measure Unit	Val
H1M1241N (antibody, V domains shown) VH: EVQLVESGGGLVKPGGSLRLSCAASGFTFSSYSMNWVRQAPGKGLEWVSSISSRSSYIYYADSVKGRFTISRDNAKNSLYLQMNSLRAEDTAVYYCARDHIVVVPGASYYYYGMDVWGQGTTVTVSS VL: DIQMTQSPSSLSASVGDRVTITCRASQGIRNDLGWYQQKPGKAPKRLISAASSLQSGVPSRFSGSGSGTEFTLTISSLQPEDFATYYCLQHNSYPLTFGGGTKVEIK	M⁻¹ s⁻¹	182000
H2M1242N (antibody, mouse IgG2, V domains shown) VH: EVQLVESGGGLVRPGGSLRLSCAASGFTFTSYAMNWVRQAPGKGLEWVSSISSYSSYIYIADSVKGRFTLSRDNAKNSLYLQMHSLRPEDTAVYFCAREGYSAYSYFDFWGRGTLVTVSS VL: DIQMTQSPSTLSASVGDRVTITCRASQSVISWLAWYQQKPGKAPKLLIHRASSLESGVPSRFSGSGSGTEFTLTISGLQPDDFATYYCQQYNTYFPTFGQGTKVEVK	M⁻¹ s⁻¹	192000
H4H2797P (antibody, human IgG4, V domains shown) VH: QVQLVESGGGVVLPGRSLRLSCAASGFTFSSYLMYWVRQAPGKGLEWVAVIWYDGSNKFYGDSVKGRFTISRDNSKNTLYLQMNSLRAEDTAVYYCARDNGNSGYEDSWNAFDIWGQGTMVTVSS VL: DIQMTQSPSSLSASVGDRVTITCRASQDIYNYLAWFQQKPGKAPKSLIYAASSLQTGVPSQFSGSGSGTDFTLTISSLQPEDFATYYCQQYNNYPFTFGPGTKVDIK	M⁻¹ s⁻¹	202000
H4H2608B (antibody, human IgG4, V domains shown) VH: EVQLVESGGGLVKPGGSLRLSCAASGFTFSDYYMNWIRQAPGKGLEWISYISSSDDTTYYADSVKGRFTISRDNAKNSLYLQMNSLRAEDTAVYYCARDGKYNTVAGDHWGQGTLVTVSS VL: EIVMTQSPDFQSVAPKEKVTITCRASQNIGSSLHWYQQKPDQSPKLLIKYASQSFSGVPSRFSGSGSGTDFTLTINSLEAEDAATYYCLQSYTLRTFGQGTKVEIKR	M⁻¹ s⁻¹	516000

// next entry
Entry H2M1233N (antibody, mouse IgG2, V domains shown) VH: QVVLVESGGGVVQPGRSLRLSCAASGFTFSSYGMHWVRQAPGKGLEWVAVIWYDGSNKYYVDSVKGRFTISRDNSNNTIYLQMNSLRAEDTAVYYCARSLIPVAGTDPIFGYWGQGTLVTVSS VL: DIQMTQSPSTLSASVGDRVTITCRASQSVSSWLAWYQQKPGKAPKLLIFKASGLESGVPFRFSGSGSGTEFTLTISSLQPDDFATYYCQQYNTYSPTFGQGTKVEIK — recorded kon = 253000
